Values compiled from the RNAGym collection of RNA variant scans (doi:10.1073/pnas.2313332121).

B1: TPR t1 (parent)
chain: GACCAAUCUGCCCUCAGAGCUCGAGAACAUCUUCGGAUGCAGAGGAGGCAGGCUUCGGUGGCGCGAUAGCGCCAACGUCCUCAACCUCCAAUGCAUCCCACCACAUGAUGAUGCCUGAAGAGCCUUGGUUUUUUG

Variants of: B1
Assay: polymerase ribozyme fitness, log enrichment relative to wild type (log ratio); higher = more active; in vitro selection for triplet polymerase activity
Each entry below carries its reported polymerase ribozyme fitness (log ratio).
Write the value as a bare number.

Solved cases (4 shown):
G58A U129C :: -0.222
G17U G52U C62A C70U :: -4.32
C15U U78C A83C C97A C101A U109A :: -5.99
C12U C22U C28U C124A :: -4.02

In plain terms, G60C C62U has a documented polymerase ribozyme fitness (log ratio) of -2.34

In plain terms, G57C G61A G120A has a documented polymerase ribozyme fitness (log ratio) of 0.501

In plain terms, A5C A26U G36A C88U has a documented polymerase ribozyme fitness (log ratio) of -6.38

In plain terms, G60U C115A U125G has a documented polymerase ribozyme fitness (log ratio) of 0.39

In plain terms, A43G C88G G113U A121G has a documented polymerase ribozyme fitness (log ratio) of -3.25

In plain terms, G39U G61C has a documented polymerase ribozyme fitness (log ratio) of -1.66

In plain terms, C8A A24U G61U C115U G117A has a documented polymerase ribozyme fitness (log ratio) of -7.42

In plain terms, C8G C31A A41U C73G U112A has a documented polymerase ribozyme fitness (log ratio) of -6.12

In plain terms, U33A U129A has a documented polymerase ribozyme fitness (log ratio) of -6.13

In plain terms, U55G U78A has a documented polymerase ribozyme fitness (log ratio) of -0.34

In plain terms, A83C G107U G113A has a documented polymerase ribozyme fitness (log ratio) of -3.74

In plain terms, G51C C79A G117A U133G has a documented polymerase ribozyme fitness (log ratio) of -5.7

In plain terms, A6G C8A U55A C62A has a documented polymerase ribozyme fitness (log ratio) of -0.384

In plain terms, C101G C104U has a documented polymerase ribozyme fitness (log ratio) of -2.98
